# Tested on: Wolbachia pipientis
# MEASUREMENT_PROTOCOL: Anti-Wolbachia Cell-Based Screen
# Format: functional
# Parameters: scale not given: in the data most compounds retested in dose-response had high values
# CONDITION_NOTES: 5 µM
In all, about 48,000 compounds went through this assay and about 13,000 (27%) showed an effect of 50% or more. Some of the results follow.
EXPERIMENTAL_READOUT: Percent Effect (%)
Respond with the bare value in %.

Answered cases to consult:
1) O=C(CCNC(=O)NC1CC1)NCc1ccccc1: 4.625
2) NC(=O)CN1CCC(C(=O)NCCc2nc(-c3ccccc3)cs2)CC1: 3.799
3) COCCC1(CO)CCCN(Cc2cc(C(F)(F)F)ccc2F)C1 (stereo unspecified): 0.6502
4) NC(=O)c1cnc(NC2CC2)nc1CCNC(=O)CC1CCCC1: 144.1
5) CC(C)CC(NC(=O)c1ccco1)c1nnc2ccccn12 (stereo unspecified): 109.4

Lookup: Using known records, supply Percent Effect for `Cc1cnc(NC2CCN(CC(=O)Nc3ccccc3)CC2)nc1C`
Found: 3.522

---

# Tested on: Wolbachia pipientis
# MEASUREMENT_PROTOCOL: Anti-Wolbachia Cell-Based Screen
# Format: functional
# Parameters: scale not given: in the data most compounds retested in dose-response had high values
# CONDITION_NOTES: 5 µM
Among all 48,000 compounds or so, about 13,000 (27%) showed an effect of 50% or more. This is one part of the list.
Recorded Percent Effect values for a group of compounds are listed next.
The figure you give is taken to be in %; do not add the unit.

Known Percent Effect results, listed for orientation:
1) Cc1ccnc(NC(=O)CSCc2cccnc2)c1: -2.126
2) O=C(O)C(F)(F)F.O=C(O)C(F)(F)F.O=C1COC2(CCN(Cc3cccs3)CC2)CN1c1cccnc1: 97.28
3) CN1CC(=O)N(c2cccc(F)c2)CC12CCN(Cc1ccsc1)C2.O=C(O)C(F)(F)F.O=C(O)C(F)(F)F (centres undefined): 7.196
4) O=C(O)C(F)(F)F.O=C(O)C(F)(F)F.O=C(c1ccncc1)N1CCN2C[C@H](Oc3cccc(F)c3)C[C@H]2C1: 3.231
5) CC1=C[C@@H](CN2CCC(CO)CC2)[C@H](C(C)C)C[C@H]1Cc1nnc(C)o1: -9.335
6) CN(C)C(=O)CN1C(=O)CCC12CCN(Cc1ccsc1)CC2.O=C(O)C(F)(F)F: 105.6

Lookup: Output measured Percent Effect for this item: `Cc1cccc(CSc2ncc(Br)c(C(=O)O)n2)c1`
Found: 160.3

Lookup: Please report the measured Percent Effect for `CC(C)N1CCCc2sc(C(=O)NC3CC3)nc21`
Found: -0.2474

Lookup: Determine from records and report Percent Effect for `Cc1cc(N2CCSCC2)ccc1NC(=O)N(CCO)C1CC1`
Found: -6.894

Lookup: Supply reported Percent Effect belonging to this compound: CSCCC(Nc1nc(C)cc(C)n1)C(=O)NCC1CCOCC1 (centres undefined)
Found: 96.94

Lookup: Please supply the value of reported Percent Effect for the item O=C(Cc1cccs1)N1CCCC(CNS(=O)(=O)Cc2ccccc2)C1 (centres undefined)
Found: -8.788

Lookup: Quick one: give measured Percent Effect for CC1N(C)C(=O)COC12CCN(Cc1ccsc1)CC2.O=C(O)C(F)(F)F (centres undefined)
Found: -20.67

Lookup: For the compound COCC1CN(C(=O)Cc2cccs2)Cc2c1cnn2C (centres undefined) , give its reported Percent Effect.
Found: -7.933

Lookup: Output Percent Effect of N#CC(NC(=O)c1cccc2c1OCCO2)c1ccc(F)cc1F (centres undefined)
Found: -4.984

---

# Test system: Wolbachia pipientis
# MEASUREMENT_PROTOCOL: Anti-Wolbachia Cell-Based Screen
# Assay type: functional
# Parameters: scale not given: in the data most compounds retested in dose-response had high values
# CONDITION_NOTES: 5 µM
The campaign covered roughly 48,000 compounds. About 13,000 (27%) showed an effect of 50% or more. Some of the results follow.
EXPERIMENTAL_READOUT: Percent Effect (%)
Response body: numeric value in %, unit text excluded.

Some compounds with known Percent Effect results, for comparison:
1. Cc1noc(C)c1C(=O)N(Cc1ccsc1)CC1CCCO1 (stereo not drawn): -86.84
2. CN(C)CCn1c2c(ccc1=O)CC(NC(=O)NC1CCCC1)CC2.O=C(O)C(F)(F)F (stereo not drawn): 92.43
3. O=C(NCC1CC1)N1CCN(Cc2ccc3c(c2)OCCO3)CC1: 1.258
4. CC(C)c1nc2n(n1)CC(NCC(=O)NCCC1=CCCCC1)CC2 (stereo not drawn): -9.722
5. O=C(CN1CC(n2cccn2)C1)NCCCc1ccccc1: -6.652
6. Cc1cnc2c(S(=O)(=O)NCC3CCS(=O)(=O)C3)cccc2c1 (stereo not drawn): -2.686

Lookup: Give the reported value of Percent Effect for this record: `CS(=O)(=O)N1CCC(CNc2c(Cl)cccc2C#N)CC1`
Found: 98.55

Lookup: Supply Percent Effect value. Item: CC(Cn1cccn1)NC(=O)NCCN1CCCCCC1=O (stereo not drawn)
Found: -10.88

Lookup: State, in one line, measured Percent Effect of `CC(=O)NS(=O)(=O)c1ccc2c(c1)N(C)CCC2`
Found: -0.0475

Lookup: Please report the measured Percent Effect for CC(C)NC1CCc2c(ccc(=O)n2CCN(C)C)C1.O=C(O)C(F)(F)F.O=C(O)C(F)(F)F (stereo not drawn)
Found: 8.884

Lookup: Please look at this compound and report its Percent Effect: `CCN1CCN(C(=O)c2c[nH]c(C(C)C)n2)c2ccccc21`
Found: 16.43

Lookup: Give a short answer stating reported Percent Effect for `O=S(=O)(c1cccs1)N1Cc2nc(COCC3CC3)oc2C1` .
Found: 96.89

Lookup: Quote Percent Effect reported for Cn1c2c(ccc1=O)CC(NC(=O)c1ccsc1)CC2 (stereo not drawn) please.
Found: 116.4

---

Known Percent Effect of a selection of compounds
# Test system: Wolbachia pipientis
# MEASUREMENT_PROTOCOL: Anti-Wolbachia Cell-Based Screen
# Assay type: functional
# Set-up: scale not given: in the data most compounds retested in dose-response had high values
# CONDITION_NOTES: 5 µM
About 13,000 (27%) of roughly 48,000 compounds showed an effect of 50% or more. The list shows a part of the results.
Please reply with the bare figure in % and do not write the unit itself.

1. CCC(=O)N1CCCC(c2cc(Nc3ncccn3)nc(C)n2)C1 (stereo not given): -9.589
2. COc1ncccc1CN1CCn2c(C(=O)N3CCCC3)cnc2C1.O=C(O)C(F)(F)F.O=C(O)C(F)(F)F: -2.628
3. CC(C)Cc1ncc2c(n1)CN(c1nccc(N(C)C)n1)C2: -11.83

Lookup: Please give measured Percent Effect of the following entry: `Cc1noc(C)c1CN(C)c1ncnc2ccccc12`
Found: 85.55

Lookup: For the compound `COCCCOC1CN(C(=O)c2[nH]nc3c2CCCC3)C1` , give its measured Percent Effect value.
Found: -6.811

---

# Test system: Wolbachia pipientis
# MEASUREMENT_PROTOCOL: Anti-Wolbachia Cell-Based Screen
# Type: functional
# Design: scale not given: in the data most compounds retested in dose-response had high values
# CONDITION_NOTES: 5 µM
The whole screen tested about 48,000 compounds, of which about 13,000 (27%) showed an effect of 50% or more. The list shows a part of the results.
EXPERIMENTAL_READOUT: Percent Effect (%)
Provide the reading as a plain figure in %.

1) Cc1cc(CN(C)C(=O)NC2CCCN(c3ncccn3)C2)no1 (centres undefined): -2.323
2) O=C(O)C(F)(F)F.O=C(O)C(F)(F)F.c1cc2c(cc1CN1CC[C@H]3CO[C@H](CN4CCCC4)[C@H]3C1)OCO2: -12.98
3) Cl.O=C(C1CC1)N1CCC2(CC1)CNc1ccc(F)cc12: -2.948
4) O=C(O)C(F)(F)F.O=C(O)C(F)(F)F.c1cc(CN2CC[C@@H]3[C@@H](CO[C@H]3CN3CCOCC3)C2)cs1: 92.79
5) CN(C)c1nc2c(c(NCc3cc(O)ncn3)n1)CCCC2: 14.14

Lookup: Using Wolbachia pipientis as the test system, report measured Percent Effect of `O=C(O)C(F)(F)F.O=C(O)C(F)(F)F.c1cc(CN2CC[C@H]3CO[C@H](CN4CCOCC4)[C@H]3C2)cs1` .
Found: 117.2

Lookup: Fill: Percent Effect (Wolbachia pipientis) for this compound O=S(=O)(NC1CCN(CC(F)(F)F)C1)c1cc(F)cc(F)c1 (centres undefined)
Found: -11.02

Lookup: Please report the measured Percent Effect for `CN1CCN(C(=O)N2C[C@H]3CC[C@@H]2CN(Cc2ccccc2)C3)CC1` tested on Wolbachia pipientis.
Found: -20.32

Lookup: State Percent Effect (Wolbachia pipientis) of `CN1CCN(C[C@H]2OC[C@@H]3CCN(Cc4ccsc4)C[C@@H]32)CC1` .
Found: 98.94

Lookup: Look up and report measured Percent Effect (Wolbachia pipientis) for the following compound: `CCC[C@@H]1CN(S(=O)(=O)c2ccc3[nH]c(=O)[nH]c3c2)C[C@H]1NC(C)=O`
Found: -12.43

Lookup: Write down measured Percent Effect (Wolbachia pipientis) for this compound. `Cc1ccc(Cc2cnc(C3CCNCC3)cn2)cc1.Cl`
Found: 94.42

Lookup: Fill: Percent Effect (Wolbachia pipientis) for this compound COc1ccc(C(=O)C2CCCN(c3cc(N)ncn3)C2)c(C)c1 (centres undefined)
Found: -12.01

Lookup: Fetch value of Percent Effect on Wolbachia pipientis for `CN1CCN(C[C@@H]2OC[C@H]3CN(Cc4ccsc4)CC[C@H]32)CC1.O=C(O)C(F)(F)F.O=C(O)C(F)(F)F.O=C(O)C(F)(F)F` .
Found: -2.359

Lookup: Give Wolbachia pipientis Percent Effect for the following compound: `COC[C@]1(O)CCN(Cc2c[nH]c(CC3CCCC3)n2)CC1(C)C`
Found: 12.99
